Data provenance is patent US11597752B2.

Biological target: HLA-A*02:01 (Homo sapiens, UniProt P04439, D140Y/D185E/D98H/E176V/E277Q/G131W/G231S/I119V/I121R/I166T/I218V/L300P/L318F/N151K/N90K/P208A/P217A/Q86G/Q94H/R138H/R169H/T345S)
Assay: MHC binding assay (UV-ligand exchange, beta2m ELISA, peptide exchange yield)
Conditions: binding to HLA-A*02:01, β2m ELISA
READOUT TYPE: Peptide exchange (MHC class I binding score, peptide exchange yield)

[[record]]
substance = "94 (KSMDIVLTV; listed as Homo sapiens) [compound 94]"
result = "“+++” (≥50 = +++)"

[[record]]
substance = "16 (VLVDQSWVL; listed as Homo sapiens) [compound 16]"
result = "“+++” (≥50 = +++)"

[[record]]
substance = "96 (KLYSRLVYV; listed as Homo sapiens) [compound 96]"
result = "“++” (≥20% = ++)"

[[record]]
substance = "125 (KLGDFGLLVEL; listed as Homo sapiens) [compound 125]"
result = "“++++” (≥75% = ++++)"

[[record]]
substance = "141 (AVIEHLERL; listed as Homo sapiens) [compound 141]"
result = "“++++” (≥75% = ++++)"

[[record]]
substance = "132 (ALLNAILHSA; listed as Homo sapiens) [compound 132]"
result = "“+++” (≥50 = +++)"

[[record]]
substance = "178 (YLFREPATI; listed as Homo sapiens) [compound 178]"
result = "“++” (≥20% = ++)"

[[record]]
substance = "145 (LLLEVVKQV; listed as Homo sapiens) [compound 145]"
result = "“+++” (≥50 = +++)"


Return reported Peptide exchange (MHC class I binding score, peptide exchange yield) values for all items listed beneath this line.
1. 149 (YQFDKVGILTL; listed as Homo sapiens) [compound 149]
2. 163 (RLLHEVQEL; listed as Homo sapiens) [compound 163]
3. 128 (MLDDRAYLV; listed as Homo sapiens) [compound 128]
4. 169 (YLAHFIEGL; listed as Homo sapiens) [compound 169]
5. 28 (ALTEIQEFI; listed as Homo sapiens) [compound 28]

a:
“+++” (≥50 = +++)
“+++” (≥50 = +++)
“++” (≥20% = ++)
“+++” (≥50 = +++)
“++++” (≥75% = ++++)

Return reported Peptide exchange (MHC class I binding score, peptide exchange yield) values for all items listed beneath this line.
1. 191 (QLFSEIHNL; listed as Homo sapiens) [compound 191]
2. 112 (KLGQVLIYL; listed as Homo sapiens) [compound 112]
3. 160 (KLLEFDQLQL; listed as Homo sapiens) [compound 160]

a:
“++++” (≥75% = ++++)
“++” (≥20% = ++)
“+++” (≥50 = +++)

Return reported Peptide exchange (MHC class I binding score, peptide exchange yield) values for all items listed beneath this line.
1. 117 (TLQPVDNSTISL; listed as Homo sapiens) [compound 117]
2. 102 (KILVSLIEV; listed as Homo sapiens) [compound 102]

a:
1. “++” (≥20% = ++)
2. “+++” (≥50 = +++)

Return reported Peptide exchange (MHC class I binding score, peptide exchange yield) values for all items listed beneath this line.
1. 177 (ALLQGAIESV; listed as Homo sapiens) [compound 177]
2. 124 (RVLPPSALQSV; listed as Homo sapiens) [compound 124]
3. 54 (ALLNGEYLLAA; listed as Homo sapiens) [compound 54]
4. 118 (LLADLKTMV; listed as Homo sapiens) [compound 118]

a:
1: “+++” (≥50 = +++); 2: “+++” (≥50 = +++); 3: “+++” (≥50 = +++); 4: “+++” (≥50 = +++)

Return reported Peptide exchange (MHC class I binding score, peptide exchange yield) values for all items listed beneath this line.
1. 187 (GLHNVVYGI; listed as Homo sapiens) [compound 187]
2. 90 (GLLKPGLNVVL; listed as Homo sapiens) [compound 90]
3. 22 (GLIDEVMVL; listed as Homo sapiens) [compound 22]

a:
“+++” (≥50 = +++)
“+++” (≥50 = +++)
“+++” (≥50 = +++)

Return reported Peptide exchange (MHC class I binding score, peptide exchange yield) values for all items listed beneath this line.
1. 98 (AMNGKSFSV; listed as Homo sapiens) [compound 98]
2. 60 (VLDEDEPRFL; listed as Homo sapiens) [compound 60]
3. 36 (GLLESPSIFNFTA; listed as Homo sapiens) [compound 36]
4. 26 (GLASKENFSNVSL; listed as Homo sapiens) [compound 26]
5. 158 (GLLDPSVFHV; listed as Homo sapiens) [compound 158]
6. 167 (SVIDHIHLISV; listed as Homo sapiens) [compound 167]

a:
“++” (≥20% = ++)
“++” (≥20% = ++)
“+++” (≥50 = +++)
“++” (≥20% = ++)
“+++” (≥50 = +++)
“+++” (≥50 = +++)

Return reported Peptide exchange (MHC class I binding score, peptide exchange yield) values for all items listed beneath this line.
1. 176 (RTLDKVLEV; listed as Homo sapiens) [compound 176]
2. 130 (GLGGSQLIDTHL; listed as Homo sapiens) [compound 130]
3. 70 (MISELEVRL; listed as Homo sapiens) [compound 70]
4. 110 (LLGELPRLLLL; listed as Homo sapiens) [compound 110]
5. 29 (QMLDVAIRV; listed as Homo sapiens) [compound 29]

a:
“++” (≥20% = ++)
“++” (≥20% = ++)
“+++” (≥50 = +++)
“+++” (≥50 = +++)
“+++” (≥50 = +++)

q: Would you kindly share the measured Peptide exchange (MHC class I binding score, peptide exchange yield) for 24 (VLDGVLMEL; listed as Homo sapiens) [compound 24] ?
a: “+++” (≥50 = +++)

---

Target: HLA-A*02:01 (Homo sapiens, UniProt P04439, D140Y/D185E/D98H/E176V/E277Q/G131W/G231S/I119V/I121R/I166T/I218V/L300P/L318F/N151K/N90K/P208A/P217A/Q86G/Q94H/R138H/R169H/T345S)
Test: MHC binding assay (UV-ligand exchange, beta2m ELISA, peptide exchange yield)
Conditions: binding to HLA-A*02:01, β2m ELISA
READOUT TYPE: Peptide exchange (MHC class I binding score, peptide exchange yield)

Study these solved cases before continuing.
[[record]]
substance = "56 (VLFTDEGVPKFL; listed as Homo sapiens) [compound 56]"
result = "“++” (≥20% = ++)"

[[record]]
substance = "7 (YLTRHLAVL; listed as Homo sapiens) [compound 7]"
result = "“++” (≥20% = ++)"

[[record]]
substance = "63 (KLFSILSTV; listed as Homo sapiens) [compound 63]"
result = "“++” (≥20% = ++)"

[[record]]
substance = "174 (ILLDDNMQIRL; listed as Homo sapiens) [compound 174]"
result = "“++++” (≥75% = ++++)"

[[record]]
substance = "51 (QVWEIQHTV; listed as Homo sapiens) [compound 51]"
result = "“++” (≥20% = ++)"

[[record]]
substance = "13 (FLLAEDTKV; listed as Homo sapiens) [compound 13]"
result = "“+++” (≥50 = +++)"


Return reported Peptide exchange (MHC class I binding score, peptide exchange yield) values for all items listed beneath this line.
1. 38 (SLAPTPVSA; listed as Homo sapiens) [compound 38]
2. 123 (KTLERSYLL; listed as Homo sapiens) [compound 123]

a:
["“++” (≥20% = ++)", "“++” (≥20% = ++)"]

Return reported Peptide exchange (MHC class I binding score, peptide exchange yield) values for all items listed beneath this line.
1. 93 (SLQELRLLL; listed as Homo sapiens) [compound 93]
2. 186 (KMSEKILLL; listed as Homo sapiens) [compound 186]

a:
1: “++++” (≥75% = ++++); 2: “+++” (≥50 = +++)

---

Target: HLA-A*02:01 (Homo sapiens, UniProt P04439, D140Y/D185E/D98H/E176V/E277Q/G131W/G231S/I119V/I121R/I166T/I218V/L300P/L318F/N151K/N90K/P208A/P217A/Q86G/Q94H/R138H/R169H/T345S)
Assay: MHC binding assay (UV-ligand exchange, beta2m ELISA, peptide exchange yield)
Conditions: binding to HLA-A*02:01, β2m ELISA
READOUT TYPE: Peptide exchange (MHC class I binding score, peptide exchange yield)

[[record]]
substance = "44 (SLESKLTSV; listed as Homo sapiens) [compound 44]"
result = "“+++” (≥50 = +++)"

[[record]]
substance = "45 (ALAELLHGA; listed as Homo sapiens) [compound 45]"
result = "“+++” (≥50 = +++)"

[[record]]
substance = "31 (LLYGKYVSV; listed as Homo sapiens) [compound 31]"
result = "“+++” (≥50 = +++)"

